Source: PubChem BioAssay

- procedure.summary: splicing luciferase reporter signal modulators, primary screen, spliceosome inhibition project, cell-based, HEK293, splice +/- reporter (AID 1101);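 also: HEK293 cells carrying a splicing-competent luciferase reporter gene; test concentration not given here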
- test.settings: luminescence, 24 h, higher = more signal, called active from +8 up or from −8 down
The source made the active and inactive calls.

compound: Cc1ccc(F)cc1S(=O)(=O)N[C@@H]1CCN(Cc2ccc3c(c2)OCO3)C1
z-score: -0.0924 (inactive)

compound: [N-]=[N+]=NCc1ccccc1C[C@]1(C(=O)N2CCCCC2)N=C(c2ccc(OCCCO)cc2)O[C@H]1c1ccccc1
z-score: -0.44 (inactive)

compound: CC(C)C(=C=CC[C@@H](O)c1ccc(OCCO)cc1)CCO
z-score: -0.35 (inactive)

compound: CCOC(=O)C[C@H]1[C@H](OC(=O)c2cc3ccccc3oc2=O)[C@@H](NC(=O)C2CCCCC2)c2cc(OCCCO)ccc2N1C(=O)Cc1ccc(OC)cc1
z-score: 0.0427 (inactive)

compound: CCOC(=O)C[C@H]1[C@H](OC(=O)Cc2ccc3c(c2)OCO3)[C@@H](NC(=O)c2ccccc2)c2cc(OCCCO)ccc2N1C(=O)Cc1ccc(OC)cc1
z-score: -2.62 (inactive)

compound: COC(=O)[C@@]1(Cc2ccccc2)[C@H]2c3cc(C(=O)N4CCCC4)n(Cc4ccc(C(F)(F)F)nc4)c3C[C@H]2CN1C(=O)c1ccccc1
z-score: -0.434 (inactive)

compound: COc1ccc([Si](C)(C)[C@@H]2[C@@H](CC(=O)N(CCO)Cc3ccccc3)O[C@]3(C(=O)N(Cc4ccc(N5CCC5=O)cc4)c4ccccc43)[C@H]2C)cc1
z-score: -1.9 (inactive)

compound: [N-]=[N+]=Nc1ccccc1[C@@H]1OC(c2ccc(OCCCO)cc2)=N[C@]1(Cc1ccccc1)C(N)=O
z-score: 0.336 (inactive)

compound: CC(C)CNC(=O)[C@@H]1c2ccccc2C(=O)N(Cc2ccccc2Cl)[C@H]1c1ccc(CO)cc1
z-score: 0.587 (inactive)

compound: Cc1ccc(S[C@]2(C(=O)NCC(F)(F)F)CC(=O)N(C3CCCCC3)[C@@H]2c2ccc(CO)cc2)cc1
z-score: 0.113 (inactive)

compound: CCN(CC)c1ccc(N2CC=CC34O[C@@H]5C=CCOC(=O)[C@@H]5[C@H]3C(=O)N(CCCO)[C@@H]4C2=O)cc1 (stereo not given in full)
z-score: -1.6 (inactive)

compound: CN(C)C(=O)[C@]1(Cc2ccccc2CN=[N+]=[N-])N=C(c2ccc(OCCCO)cc2)O[C@@H]1c1ccccc1N=[N+]=[N-]
z-score: -1.27 (inactive)

compound: C=CC[C@]1(C(=O)NCc2ccccc2)COC(c2ccc(OCCCO)cc2)=N1
z-score: 0.589 (inactive)

compound: CC(c1ccccc1)C(O)C1C=CC2C(=O)N(c3ccccc3)C(=O)C2N1Nc1ccc(C#N)cc1 (stereo not given)
z-score: -0.44 (inactive)

compound: C=CCC(OC(C)=O)[C@@H]1[C@@H](N(Cc2cc3ccccc3o2)C(=O)Cc2ccc(OC)cc2)c2cc(OCCCO)ccc2N1C(=O)Cc1ccc2ccccc2c1 (stereo not given in full)
z-score: -0.475 (inactive)

====

Attribute: z-score
- procedure.summary: basal RPMI8226 mitochondrial membrane potential changes, profiling panel, cell-based, JC-1 fluorescence, 24 h, 100 nL compound (AID 1169); also: test concentration not given here
- test.settings: RPMI8226 myeloma, JC-1 mitochondrial potential fluorescence, higher = more signal
parameter.measured: z-score

compound: C=C(CC1([C@@H](NP(=O)(c2ccccc2)c2ccccc2)[C@H]2C[C@@H]2CCN(C(=O)OCC)S(=O)(=O)c2ccc(C)cc2)CC1)c1ccccc1
result.number: -0.699
--
compound: COCCOC(=O)N1C(=O)[C@@]2(c3cc(C#CC4=CCCCC4)ccc31)[C@H](c1ccc(OCCO)cc1)N1[C@H](c3ccccc3)[C@H](c3ccccc3)OC(=O)[C@H]1[C@@H]2C(=O)N1CCCCCCC1
result.number: -1.19
--
compound: CCC(CC)C(O)C1C=CC2C(=O)N(C)C(=O)C2N1N1CCCCC1 (stereo unspecified)
result.number: 0.153
--
compound: O=C1OCCC=C[C@H]2OC34C=CCN(CCN5CCOCC5)C(=O)[C@H]3N(CCCO)C(=O)[C@@H]4C12 (stereo partly specified)
result.number: 0.398
--
compound: C=CCOC(=O)[C@H]1[C@@H]2C(=O)O[C@@H](c3ccccc3)[C@@H](c3ccccc3)N2[C@@H](c2ccc(OCCOC(=O)[C@H]3C[C@H]4C(=O)NCC(=O)N4[C@H]3c3ccc(O)cc3)cc2)[C@]12C(=O)Nc1ccc(I)cc12
result.number: -0.398
--
compound: COCC(=C=CC[C@@H](O)c1ccc(OCCO)cc1)C[C@@H](O)COCc1ccccc1
result.number: -0.725

====

- procedure.summary: compound binding in COS7 lysate, probe aLAP1, primary screen, cell lysate, small-molecule microarray (AID 1124);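 also: lysate comes from COS7 cells expressing LAP1 and is applied at 0.3 µg/mL; score merges spot fluorescence near 667 nm with signal-to-noise over triplicate slides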
- test.settings: probe aLAP1, fluorescence, higher = more signal
Cut-off 0.09 on composite z-score, inclusive. At or above means T; below means F.

molecule: O=c1cccc(-c2ccccc2C(F)(F)F)o1
cat: F

molecule: NC(=O)NCC#Cc1ccc2c(c1)[C@]1(C(=O)N2)[C@H](C(=O)Nc2nc3ccccc3s2)[C@H]2C(=O)O[C@H](c3ccccc3)[C@H](c3ccccc3)N2[C@@H]1c1ccc(OCCO)cc1
cat: T

molecule: O=C1O[C@@H](c2ccccc2)[C@@H](c2ccccc2)N2[C@@H](c3ccc(O)cc3)[C@]3(C(=O)Nc4ccc(C#CC5=CCCCC5)cc43)[C@@H](C(=O)N3CCCCCCC3)[C@H]12
cat: T

molecule: C=CC[C@]1(C(=O)NCCCOC)N=C(c2ccc(OCCCO)cc2)O[C@H]1c1ccccc1
cat: T

molecule: COc1cc2c(cc1O)C(c1ccc(CN3CCCC3)cc1)N(Cc1ccc([N+](=O)[O-])o1)CC2 (configuration not stated)
cat: T

molecule: CCCCCN1CC=CC23O[C@@H]4C=CCOC(=O)[C@@H]4[C@H]2C(=O)N(CCCCCO)[C@@H]3C1=O (some centres not stated)
cat: F

====

composite z-score listing for selected molecules.
- procedure.summary: small-molecule binders of probe aNOTCH2, primary screen, biochemical, small-molecule microarray, 635/667 nm fluorescence (AID 1121);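 also: score merges feature fluorescence read at 667 nm with its signal to noise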
- test.settings: higher = more signal
parameter.measured: composite z-score

molecule: C=C(CCCC)C(=O)CC[C@H](OC(C)=O)c1ccccc1OCCO
parameter.measured: composite z-score
result.number: -0.0242

molecule: C=CCOC(=O)[C@@H]1[C@H]2C(=O)O[C@H](c3ccccc3)[C@H](c3ccccc3)N2[C@H](c2ccc(OCCOC(=O)[C@H]3C[C@H]4C(=O)NCC(=O)N4[C@H]3c3ccc(O)cc3)cc2)[C@@]12C(=O)Nc1ccc(I)cc12
parameter.measured: composite z-score
result.number: -0.117

molecule: CN(C)CCCC[C@@H]1NC(=O)[C@H]2C[C@@H](C(=O)NCc3ccc(F)cc3)[C@@H](c3ccc(O)cc3)N2C1=O
parameter.measured: composite z-score
result.number: -0.0423

molecule: CN1C(=O)[C@]2(CCC(=O)OC(C)(C)C)N=C(c3ccc(OCCCO)cc3)O[C@@H]2c2ccccc21
parameter.measured: composite z-score
result.number: -0.12

molecule: CC[C@H](C)C(=O)O[C@H]1CC[C@]2(C)C3=C(CCC2C1(C)C)[C@]1(C)CC[C@H]([C@H](C)CCCC(C)C)[C@@]1(C)CC3 (stereo partly drawn)
parameter.measured: composite z-score
result.number: -0.146

molecule: COCCOC(=O)N1C(=O)[C@@]2(c3cc(C#CC4(O)CCCCCC4)ccc31)[C@H](c1ccc(OCCO)cc1)N1[C@H](c3ccccc3)[C@H](c3ccccc3)OC(=O)[C@H]1[C@@H]2C(=O)N1CCCCCCC1
parameter.measured: composite z-score
result.number: 0.0899

molecule: CCOC(=O)C1=CC[C@@H](c2ccc(F)cc2)N(S(=O)(=O)c2ccc(C)cc2)[C@H]1c1ccc([N+](=O)[O-])cc1
parameter.measured: composite z-score
result.number: -0.14

molecule: C=CCNC(=O)[C@@H]1[C@H]2C(=O)O[C@H](c3ccccc3)[C@H](c3ccccc3)N2[C@H](c2ccc(O)cc2)[C@@]12C(=O)Nc1ccc(C#CC3(O)CCCCCC3)cc12
parameter.measured: composite z-score
result.number: -0.179

molecule: CCCCCN1CC=CC23O[C@@H]4C=CCOC(=O)[C@@H]4[C@H]2C(=O)N(CCCCCO)[C@@H]3C1=O (stereo partly drawn)
parameter.measured: composite z-score
result.number: -0.146

molecule: COCCOC(=O)N1C(=O)[C@@]2(c3cc(C#CC4=CCCCC4)ccc31)[C@H](c1ccc(OCCO)cc1)N1[C@H](c3ccccc3)[C@H](c3ccccc3)OC(=O)[C@H]1[C@@H]2C(=O)N1CCCCCCC1
parameter.measured: composite z-score
result.number: 0.0784

molecule: CN1C(=O)C2C=CC(C(O)c3ccc(-c4ccccc4)s3)N(Nc3ccccc3)C2C1=O (stereo not drawn)
parameter.measured: composite z-score
result.number: 0.135

molecule: C[N+](C)(C)CCCCCCNC(=O)[C@@H]1C[C@@H]2C(=O)N[C@@H](Cc3ccccc3)C(=O)N2[C@@H]1c1ccc(O)cc1
parameter.measured: composite z-score
result.number: -0.126

molecule: O=C1C2C=CC(C(O)c3ccc([N+](=O)[O-])cc3)N(Nc3ccccc3)C2C(=O)N1c1ccccc1 (stereo not drawn)
parameter.measured: composite z-score
result.number: -0.0591
